test-protocol: Drug degradation in rat plasma assessed as compound hydrolysis with first order rate constant
Format: ADME, cell-free
Reported K values for the following compounds.
quantity-name: K (min⁻¹)

[
  {
    "compound": "Cc1cc(Nc2ncc(Cl)c(Nc3ccccc3S(=O)(=O)C(C)C)n2)c(OC(C)C)cc1C1CCN(C(=O)OC(C)OC(=O)CC(N)CC(=O)n2ncc3c(-c4nc(N5CCOCC5)c5sc(CN6CCN(S(C)(=O)=O)CC6)cc5n4)cccc32)CC1 (configuration not stated)",
    "reading": 0.01
  },
  {
    "compound": "Cc1cc(Nc2ncc(Cl)c(Nc3ccccc3S(=O)(=O)C(C)C)n2)c(OC(C)C)cc1C1CCN(C(=O)OC(C)OC(=O)[C@@H](N)CC(=O)n2ncc3c(-c4nc(N5CCOCC5)c5sc(CN6CCN(S(C)(=O)=O)CC6)cc5n4)cccc32)CC1 (some centres not stated)",
    "reading": 0.018
  }
]
